Source of measurements: BigSolDB 2.1

Details: in DMF, 303.15 K
Quantity measured: solubility (mole fraction)
One number for each entry.

Fill blank: measured solubility (mole fraction) of the compound COC(=O)c1ccnc(N)c1 is ____.
0.0183

* * *

Conditions: in water, 308.15 K
Quantity measured: solubility (mole fraction)

Fill blank: measured solubility (mole fraction) of the compound COC(=O)c1ccnc(N)c1 is ____.
0.00302

* * *

Settings: in acetonitrile, 303.15 K
Quantity measured: solubility (mole fraction)
Answers are plain numbers.

Fill blank: measured solubility (mole fraction) of the molecule COC(=O)c1ccnc(N)c1 is ____.
0.015

* * *

Conditions: in ethanol, 283.15 K
Quantity measured: solubility (mole fraction)
Numbers only.

Fill blank: measured solubility (mole fraction) of the molecule COC(=O)c1ccnc(N)c1 is ____.
0.00385

* * *

Details: in ethanol, 318.15 K
Quantity measured: solubility (mole fraction)
Answers are plain numbers.

Fill blank: measured solubility (mole fraction) of the compound COC(=O)c1ccnc(N)c1 is ____.
0.0132

* * *

Details: in water, 303.15 K
Quantity measured: solubility (mole fraction)
Give bare numbers.

Fill blank: measured solubility (mole fraction) of the compound COC(=O)c1ccnc(N)c1 is ____.
0.00258

* * *

Settings: in toluene, 278.15 K
Quantity measured: solubility (mole fraction)
Answers are plain numbers.

Fill blank: measured solubility (mole fraction) of the molecule COC(=O)c1ccnc(N)c1 is ____.
0.00824

* * *

Conditions: in methanol, 323.15 K
Quantity measured: solubility (mole fraction)
Answers are plain numbers.

Fill blank: measured solubility (mole fraction) of the compound COC(=O)c1ccnc(N)c1 is ____.
0.00946

* * *

Conditions: in isopropanol, 313.15 K
Quantity measured: solubility (mole fraction)
Give bare numbers.

Fill blank: measured solubility (mole fraction) of the molecule COC(=O)c1ccnc(N)c1 is ____.
0.0141

* * *

Conditions: in DMF, 298.15 K
Quantity measured: solubility (mole fraction)
Answers are plain numbers.

Fill blank: measured solubility (mole fraction) of the compound COC(=O)c1ccnc(N)c1 is ____.
0.0152

* * *

Conditions: in water, 298.15 K
Quantity measured: solubility (mole fraction)

Fill blank: measured solubility (mole fraction) of the molecule COC(=O)c1ccnc(N)c1 is ____.
0.00217

* * *

Conditions: in ethanol, 293.15 K
Quantity measured: solubility (mole fraction)
Answers are plain numbers.

Fill blank: measured solubility (mole fraction) of the compound COC(=O)c1ccnc(N)c1 is ____.
0.00577

* * *

Conditions: in n-propanol, 298.15 K
Quantity measured: solubility (mole fraction)
One number for each entry.

Fill blank: measured solubility (mole fraction) of the compound COC(=O)c1ccnc(N)c1 is ____.
0.00977

* * *

Details: in n-propanol, 303.15 K
Quantity measured: solubility (mole fraction)
Answers are plain numbers.

Fill blank: measured solubility (mole fraction) of the compound COC(=O)c1ccnc(N)c1 is ____.
0.0117

* * *

Conditions: in toluene, 283.15 K
Quantity measured: solubility (mole fraction)
Answers are plain numbers.

Fill blank: measured solubility (mole fraction) of the compound COC(=O)c1ccnc(N)c1 is ____.
0.00987

* * *

Conditions: in toluene, 293.15 K
Quantity measured: solubility (mole fraction)
Answers are plain numbers.

Fill blank: measured solubility (mole fraction) of the compound COC(=O)c1ccnc(N)c1 is ____.
0.0147

* * *

Details: in water, 318.15 K
Quantity measured: solubility (mole fraction)
Numbers only.

Fill blank: measured solubility (mole fraction) of the compound COC(=O)c1ccnc(N)c1 is ____.
0.00416
